Form field: pKd (one value per entry).
system.tested: GST-RAB25 (1-180) (UniProt P57735)
Sequence (P57735 1-180): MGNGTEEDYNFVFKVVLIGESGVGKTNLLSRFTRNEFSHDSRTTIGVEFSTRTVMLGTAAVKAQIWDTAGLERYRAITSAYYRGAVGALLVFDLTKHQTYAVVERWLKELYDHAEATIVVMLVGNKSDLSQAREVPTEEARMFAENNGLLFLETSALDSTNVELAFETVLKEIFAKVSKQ
experiment.notes: fluorescence polarisation; FITC-peptide 25 nM with threefold dilutions of GST-RAB protein; 20 mM Tris pH 8.0, 150 mM NaCl, 5 mM MgCl2, 2 mM DTT, 10 µM GTP, 2% glycerol; room temperature, 30 min; apparent Kd from a sigmoidal (4-parameter) fit, 95% confidence interval
pKd: −log10 of the molar value. Square brackets hold non-standard residues; d marks the D form. Ends that are not written are not given here. * marks the point of attachment. FITC = O=C1OC2(c3ccc(O)cc3Oc3cc(O)ccc32)c2ccc(NC(=S)*)cc21; Met(O) = CS(=O)CC[C@H](N)C(=O)O; PEG = not defined here

| binder | pKd |
| --- | --- |
| {FITC-PEG}-KQEEINFRLQDYIDRIIVAI[Met(O)]ETNPSILEVK (reading uncertain, also called fRFP5; source: synthetic peptide (separable byproduct of chemical synthesis, HPLC purified)) [FITC-RFP5 (FIP3 RAB-binding domain peptide with oxidised methionine)] | < 5.30 |
| {FITC-PEG}-KQEEINFRLQDYIDRIIVAIMETNPSILEVK (reading uncertain, also called fRFP3; FIP3 peptide; source: synthetic peptide (Fmoc solid phase, HPLC purified)) [FITC-RFP3 (unmodified FIP3 RAB-binding domain peptide)] | < 5.30 |

Every entry's value here was drawn from paper PMC5610242.
